Source: ChEMBL document CHEMBL2321681

- tgt: Peroxisome proliferator-activated receptor delta (Homo sapiens)
- Sequence (Q03181 whole entry): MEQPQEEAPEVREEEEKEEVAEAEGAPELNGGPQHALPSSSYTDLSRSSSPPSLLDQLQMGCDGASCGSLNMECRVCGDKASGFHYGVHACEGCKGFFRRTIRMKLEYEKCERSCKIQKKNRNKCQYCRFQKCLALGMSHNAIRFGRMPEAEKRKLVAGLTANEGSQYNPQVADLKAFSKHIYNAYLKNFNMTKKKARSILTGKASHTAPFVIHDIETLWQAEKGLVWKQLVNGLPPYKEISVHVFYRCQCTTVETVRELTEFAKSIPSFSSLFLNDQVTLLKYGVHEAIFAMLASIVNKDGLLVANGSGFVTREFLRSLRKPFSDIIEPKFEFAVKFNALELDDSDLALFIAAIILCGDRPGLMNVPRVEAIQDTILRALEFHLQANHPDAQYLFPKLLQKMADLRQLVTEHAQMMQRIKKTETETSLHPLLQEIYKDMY
- protocolDetails: Agonist activity at PPARbeta (unknown origin)
measuredMetric: EC50

[
  {
    "structureNotation": "CCc1nc2ccn(Cc3ccccc3)c(=O)c2n1[C@H]1CCc2cc(-c3ccccc3-c3nnn[nH]3)ccc21",
    "measuredMetric": "EC50",
    "experimentalResult": "> 50 µM"
  }
]

* * *

- protocolDetails: Intrinsic clearance in human liver microsomes

[
  {
    "structureNotation": "CCc1nc2c(C)cn(Cc3ccccc3C)c(=O)c2n1[C@H]1CCc2cc(-c3ccccc3-c3nnn[nH]3)ccc21",
    "microsomal CLint, µL/min/mg": 37.5
  },
  {
    "structureNotation": "CCc1nc2c(C)cn(Cc3ccccc3C#N)c(=O)c2n1[C@H]1CCc2cc(-c3ccccc3-c3nnn[nH]3)ccc21",
    "microsomal CLint, µL/min/mg": 20.7
  },
  {
    "structureNotation": "CCc1nc2ccn(Cc3ccccc3C#N)c(=O)c2n1[C@H]1CCc2cc(-c3ccccc3-c3nnn[nH]3)ccc21",
    "microsomal CLint, µL/min/mg": 14
  },
  {
    "structureNotation": "CCc1nc2ccn(Cc3ccccc3C)c(=O)c2n1[C@H]1CCc2cc(-c3ccccc3-c3nnn[nH]3)ccc21",
    "microsomal CLint, µL/min/mg": 32.6
  }
]

* * *

Each entry below carries its recorded IC50.
- tgt: Type-1 angiotensin II receptor (Homo sapiens, UniProt P30556)
- Sequence (P30556 whole entry): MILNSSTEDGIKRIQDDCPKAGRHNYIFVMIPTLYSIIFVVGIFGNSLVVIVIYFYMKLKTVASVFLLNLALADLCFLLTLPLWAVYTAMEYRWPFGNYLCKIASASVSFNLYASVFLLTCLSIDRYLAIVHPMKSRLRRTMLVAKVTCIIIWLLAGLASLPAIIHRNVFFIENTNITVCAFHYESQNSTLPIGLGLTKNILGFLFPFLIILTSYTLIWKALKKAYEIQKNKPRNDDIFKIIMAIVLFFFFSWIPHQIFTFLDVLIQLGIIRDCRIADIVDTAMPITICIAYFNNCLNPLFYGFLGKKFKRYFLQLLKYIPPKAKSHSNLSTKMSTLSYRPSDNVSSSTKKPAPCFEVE

[
  {
    "structureNotation": "CCc1nc2cc[nH]c(=O)c2n1[C@H]1CCc2cc(-c3ccccc3-c3nnn[nH]3)ccc21",
    "IC50, nM": 593
  },
  {
    "structureNotation": "CCc1nc2ccn(Cc3ccccc3)c(=O)c2n1[C@H]1CCc2cc(-c3ccccc3-c3nnn[nH]3)ccc21",
    "IC50, nM": 12.7
  },
  {
    "structureNotation": "CCc1nc2ccn(Cc3cccc(F)c3)c(=O)c2n1[C@H]1CCc2cc(-c3ccccc3-c3nnn[nH]3)ccc21",
    "IC50, nM": 67.4
  },
  {
    "structureNotation": "CCc1nc2ccn(CC(=O)O)c(=O)c2n1[C@H]1CCc2cc(-c3ccccc3-c3nnn[nH]3)ccc21",
    "IC50, nM": 348
  },
  {
    "structureNotation": "CCc1nc2ccn(CC3CCCCC3)c(=O)c2n1[C@H]1CCc2cc(-c3ccccc3-c3nnn[nH]3)ccc21",
    "IC50, nM": 41
  },
  {
    "structureNotation": "CCc1nc2ccn(Cc3ccccc3F)c(=O)c2n1[C@H]1CCc2cc(-c3ccccc3-c3nnn[nH]3)ccc21",
    "IC50, nM": 37.7
  }
]
